Molecular target: T1, KAE1;BUD32;CGI121;PCC1 (Arabidopsis thaliana;Arabidopsis …, UniProt O49653;Q94K14;Q6NMZ4;Q8GWD7 1-353;1-226;1-172;1-96, |||)
T1 sequence 1: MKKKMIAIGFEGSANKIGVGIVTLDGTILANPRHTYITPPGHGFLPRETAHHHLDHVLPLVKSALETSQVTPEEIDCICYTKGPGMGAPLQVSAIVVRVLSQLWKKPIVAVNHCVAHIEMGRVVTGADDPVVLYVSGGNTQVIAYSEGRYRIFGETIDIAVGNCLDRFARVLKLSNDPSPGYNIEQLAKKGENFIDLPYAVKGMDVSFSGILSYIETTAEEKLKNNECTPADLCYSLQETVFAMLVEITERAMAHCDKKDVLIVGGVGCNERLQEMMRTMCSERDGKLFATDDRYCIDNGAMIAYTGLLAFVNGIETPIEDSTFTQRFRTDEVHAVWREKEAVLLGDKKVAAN
T1 sequence 2: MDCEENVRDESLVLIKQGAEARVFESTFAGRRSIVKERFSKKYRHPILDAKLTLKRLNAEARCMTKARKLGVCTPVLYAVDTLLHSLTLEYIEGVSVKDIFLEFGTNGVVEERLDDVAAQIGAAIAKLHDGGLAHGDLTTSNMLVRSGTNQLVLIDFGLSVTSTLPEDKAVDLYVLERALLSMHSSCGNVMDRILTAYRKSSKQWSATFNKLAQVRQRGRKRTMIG
T1 sequence 3: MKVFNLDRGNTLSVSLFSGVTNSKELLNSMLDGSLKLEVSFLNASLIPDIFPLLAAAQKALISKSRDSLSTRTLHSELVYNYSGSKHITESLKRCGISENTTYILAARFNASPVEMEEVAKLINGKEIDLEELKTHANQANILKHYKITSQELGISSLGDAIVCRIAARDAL
T1 sequence 4: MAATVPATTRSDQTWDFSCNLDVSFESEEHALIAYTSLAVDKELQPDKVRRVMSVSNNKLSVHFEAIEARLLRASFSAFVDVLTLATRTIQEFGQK
Assay: EMSA; 20 uM each; MST: 20 mM PBS pH 7.5, 300 mM NaCl, 0.05% Tween 20, 25 C, 50 nM RNA; EMSA: 20 mM Tris-HCl pH 7.5, 300 mM NaCl, 5 mM b-mercaptoethanol, 20% glycerol, agarose gel in Tris-glycine pH 8.0 (8.5 for FAM-RNA), 4 C
Details: protein: recombinant;recombinant;recombinant;recombinant; tags: none (6His on partner PCC1);none (6His on partner CGI121);6His (C-term);6His (C-term); chain copies: 2;2;2;2; tRNA cloverleaf

BINDER	binding result
tRNAThrCGU (structured_RNA) RNA: GCCUCCGUAGCAUAGUGGUAUUGCGUUCGCUUCGUAAGCGAAAGGUCGUGAGUUCGAUCCUCACCGUAGGCUCCA	binds
tRNAAsnGUU (structured_RNA) RNA: GCUGGAAUAGCUCAGUAGGUUUAGAGCGUGUGGCUGUUAACCUCAAGGUCGGAGGUUCGACCCCUCCUUUCAGCGCCA	binds
tRNASerGCU (structured_RNA) RNA: GUCGCUUUGGCCGAGUGGUUAAGGCGUGUUCCUGCUAAGUACAUGGGGUUUCCCCGCGAGAGUUCGAAUCUGUCAGGCGACGCCA	binds
